- System: HiBiT-tagged MYB protein
- test: HiBiT protein abundance assay, MYB (K562 HiBiT knock-in cells)
- Assay type: cell-based, human
- condition_label: 24 hours
pIC50: −log10 of the molar value.
For each entry below, report its pIC50 value.

INSERT INTO results (compound, system_under_test, parameter, value) VALUES
  ('Cc1cn2cc(NC(=O)c3ccc(N4CCN[C@H](CO)C4)c4nccnc34)cc(F)c2n1', 'HiBiT-tagged MYB protein', 'pIC50', '6.00 to 7.00');

# map each compound to its pIC50
1. Cc1cn2cc(NC(=O)c3ccc(N4C[C@H]5C[C@@H]4C5N(C)C)c4ccnnc34)cc(F)c2n1 (some centres unmarked)
2. Cc1cnc2c(N3C[C@@H](C)N[C@@H](C)C3)ccc(C(=O)Nc3cc(F)c4nc(C)cn4c3)c2n1
3. Cc1cn2cc(NC(=O)c3ccc(N4CCC(NC5CC5)CC4)c4ccnnc34)cc(F)c2n1
4. Cc1cn2cc(NC(=O)c3ccc(N4CCN(C)[C@H](C)C4)c4ccnnc34)cc(F)c2n1
5. Cc1cn2cc(NC(=O)c3ccc(N4CCNC(C)C4)c4nccnc34)cc(F)c2n1 (centres unmarked)

1. < 5.00
2. > 7.00
3. > 7.00
4. > 7.00
5. > 7.00

# map each compound to its pIC50
1. COCCOc1ccc2c(N3CCC(N(C)C)CC3)ccc(C(=O)Nc3cc(F)c4nc(C)cn4c3)c2n1
2. Cc1cn2cc(NC(=O)c3ccc(N4CCNCC4)c4ccnnc34)nc(C)c2n1 [Compound 164, 2,2,2-trifluoroacetate]

1: > 7.00; 2: 6.00 to 7.00
